- ASSAY_TEXT: soluble fraction after stress (log2 fold change); higher = more stays soluble; pooled small domains, quantitative proteomics
- SETTINGS: stress: 50 degC
MEASURED_ATTRIBUTE: soluble fraction (log2)
// return just the number, without any unit appended

soluble fraction (log2) reading for `HMNMEPNWLKWAKQLAALAQNGLTYSDNPYEIERYEHIRRIAAEMMAEGFELDTKTILELFPREKG` : -2.05

soluble fraction (log2) reading for `HMKISIPQEYFEIYNVLKQRPMHINEISKILKKPVSEISGTISLMEIEGYITKLTTDQYVLKKI` : -0.143

soluble fraction (log2) reading for `HMTDSSEILEAALKEAEDAAHEVLNGTFSVQLEPQKAYIRRLQHMLIDRMNLSSTSKGKEPYRSLLVYR` : -1.11

soluble fraction (log2) reading for `HMDGQGIRSITPEYYLSDSATKMPDASSSGWKSVPDDYIDKHYYWVRSKILWDDGTYTTTTPVL` : -0.364

soluble fraction (log2) reading for `HMRLPVELTDREVEVLRLLAQAMSNGEIARELYIGEATVKTHVSNVLQKLGARDRVAAVVWAHRYGL` : -1.59

soluble fraction (log2) reading for `HMDDEDLAFLQREFVSYQQAMDYYGLGYKPVVRLSHISGSVYKIGKKVLIRRNIFEEYLRNHV` : -0.00496

soluble fraction (log2) reading for `HMEPMLEIFDAKIDLADVLAVESGLVRLRGGAEVTSPRVDVDAGARLELDSGARLNVERLSY` : 0.0258

soluble fraction (log2) reading for `HMAPLQDENGDLTFSYNGKTYTVNVNSEEDRNSFAEDFNKENGKKFSWFKERAGLQHYVFYDTEM` : -0.19

soluble fraction (log2) reading for `HMNSVSARRSAAITAISTGRIHSQEDLVQALKKAGYPVTQATASRDIEEIGAVRIRNQKGEMVYAIS` : 0.264
